Biological target: CXCR2 (Homo sapiens)
Construct: expressed in transfected cells
Sequence (P25025 1-360): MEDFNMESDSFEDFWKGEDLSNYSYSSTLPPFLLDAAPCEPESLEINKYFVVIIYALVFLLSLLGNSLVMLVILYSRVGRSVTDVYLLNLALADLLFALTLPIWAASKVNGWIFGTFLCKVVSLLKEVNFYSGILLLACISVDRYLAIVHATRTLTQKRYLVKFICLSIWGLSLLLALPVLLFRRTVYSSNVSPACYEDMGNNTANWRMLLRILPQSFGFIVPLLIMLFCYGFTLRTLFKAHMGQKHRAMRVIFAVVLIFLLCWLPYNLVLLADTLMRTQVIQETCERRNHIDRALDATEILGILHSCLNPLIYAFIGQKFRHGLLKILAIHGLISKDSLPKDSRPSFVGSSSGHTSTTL
Assay: NanoBRET β-arrestin1 recruitment inhibition assay (NanoLux) in HEK293A cells
Format: cell-based
Conditions: CXCL2 at EC80; normalized to Imax of navarixin = 100%; n = 3
parameter.measured: Imax βarr1 (maximum observed inhibitory effect) (%)

[[record]]
molecule = "C[C@H](CO)Nc1nc(SCc2cccc(Cl)c2F)nc2[nH]c(=O)sc12 [AZ10397767, reference compound]"
subject_of_test = "CXCR2 (Homo sapiens)"
numeric_readout = 100

[[record]]
molecule = "CCCC(C)CSc1nc(NC(C)CO)c2nn[nH]c2n1 (centres unmarked)"
subject_of_test = "CXCR2 (Homo sapiens)"
numeric_readout = 96.96

[[record]]
molecule = "CC(CO)Nc1nc(SCc2cccc(F)c2F)nc2ncsc12 (centres unmarked)"
subject_of_test = "CXCR2 (Homo sapiens)"
numeric_readout = 100

[[record]]
molecule = "CC(CO)Nc1nc(SCc2cccc(F)c2F)nc2cnccc12 (centres unmarked)"
subject_of_test = "CXCR2 (Homo sapiens)"
numeric_readout = 100

[[record]]
molecule = "CC(CO)Nc1nc(SCc2cccc(F)c2F)nc2nc(N)sc12 (centres unmarked)"
subject_of_test = "CXCR2 (Homo sapiens)"
numeric_readout = 100


###

# Imax Gαi1 (maximum observed inhibitory effect) annotations
molecular target: CXCR2 (Homo sapiens); construct: expressed in transfected cells; experiment: NanoBRET-based G protein activation inhibition assay (REGA-SIGN Gαi1 dissociation) in HEK293A.CXCR2 cells; format: cell-based; conditions: CXCL8 at EC80; normalized to Imax of navarixin = 100%; n = 3
parameter.measured: Imax Gαi1 (maximum observed inhibitory effect) (%)

[[record]]
molecule = "CCCC(C)CSc1nc(NC(C)CO)c2nn[nH]c2n1 (stereo not shown)"
subject_of_test = "CXCR2 (Homo sapiens)"
unit_symbol = "%"
qualifier_sign = "<"
numeric_readout = 50

[[record]]
molecule = "CC(CO)Nc1nc(SCc2cccc(F)c2F)nc2nc(N)sc12 (stereo not shown)"
subject_of_test = "CXCR2 (Homo sapiens)"
unit_symbol = "%"
qualifier_sign = "="
numeric_readout = 100

[[record]]
molecule = "C[C@H](CO)Nc1nc(SCc2cccc(Cl)c2F)nc2[nH]c(=O)sc12 [AZ10397767, reference compound]"
subject_of_test = "CXCR2 (Homo sapiens)"
unit_symbol = "%"
qualifier_sign = "="
numeric_readout = 98.5

[[record]]
molecule = "CC(CO)Nc1nc(SCc2cccc(F)c2F)nc2oncc12 (stereo not shown)"
subject_of_test = "CXCR2 (Homo sapiens)"
unit_symbol = "%"
qualifier_sign = "="
numeric_readout = 100

[[record]]
molecule = "CC(CO)Nc1nc(SCc2cccc(F)c2F)nc2[nH]cnc12 (stereo not shown)"
subject_of_test = "CXCR2 (Homo sapiens)"
unit_symbol = "%"
qualifier_sign = "<"
numeric_readout = 50

[[record]]
molecule = "CC(CO)Nc1nc(SCc2cccc(F)c2F)nc2ncsc12 (stereo not shown)"
subject_of_test = "CXCR2 (Homo sapiens)"
unit_symbol = "%"
qualifier_sign = "<"
numeric_readout = 50

[[record]]
molecule = "CC(CCO)Nc1nc(SCc2cccc(F)c2F)nc2[nH]nnc12 (stereo not shown)"
subject_of_test = "CXCR2 (Homo sapiens)"
unit_symbol = "%"
qualifier_sign = "<"
numeric_readout = 50


###

Measured pIC50 accompanies every entry in the list below.
target: CXCR2 (Homo sapiens); construct: expressed in transfected cells; experiment: NanoBRET β-arrestin1 recruitment inhibition assay (NanoLux) in HEK293A cells; type: cell-based; settings: CXCL6 at EC80; mean, n = 3; read-out: IC50 βarr1
pIC50: −log10 of the molar value.
parameter.measured: pIC50

[[record]]
compound = "CC(CO)Nc1nc(SCc2cccc(F)c2F)nc2[nH]cnc12 (stereo not drawn) [MVH-15]"
parameter_measured = "pIC50"
numeric_readout = 5.64

[[record]]
compound = "CCCC(C)CSc1nc(NC(C)CO)c2nn[nH]c2n1 (stereo not drawn) [MVH-82]"
parameter_measured = "pIC50"
numeric_readout = 6.06

[[record]]
compound = "CC(CO)Nc1nc(SCc2cccc(F)c2F)nc2ncsc12 (stereo not drawn) [MVH-22]"
parameter_measured = "pIC50"
numeric_readout = 5.83

[[record]]
compound = "CC(CCO)Nc1nc(SCc2cccc(F)c2F)nc2[nH]nnc12 (stereo not drawn) [MVH-33]"
parameter_measured = "pIC50"
numeric_readout = 6.10

[[record]]
compound = "CC(CO)Nc1nc(SCc2cccc(F)c2F)nc2cnccc12 (stereo not drawn) [MVH-3]"
parameter_measured = "pIC50"
numeric_readout = 6.15

[[record]]
compound = "CC(CO)Nc1nc(SCc2cccc(F)c2F)nc2oncc12 (stereo not drawn) [MVH-24]"
parameter_measured = "pIC50"
numeric_readout = 7.15


###

Biological target: CXCR2 (Homo sapiens, UniProt P25025)
Construct: expressed in transfected cells
Experiment: NanoBRET-based G protein activation inhibition assay (REGA-SIGN Gαi1 dissociation) in HEK293A.CXCR2 cells
Type: cell-based
Conditions: CXCL1 at EC80; normalized to Imax of navarixin = 100%; n = 3
Experimental: Cells were trypsinized and resuspended at 3 × 10^5 cell/mL in the growth medium, whereafter they were incubated for 2 hours at RT. […] After a 10-min equilibration period, the baseline BRET signal was determined by five consecutive reads followed by automatic administration of 10 μL of 10× ligand (Table 1) to the cell plate. Changes in the BRET signal was measured for 10 min, with each read spaced by 2.5 s. […] Neg AUC of NC correctedΔBRET=Gα activation read out. b. […]
parameter.measured: Imax Gαi1 (maximum observed inhibitory effect) (%)

[[record]]
compound = "C[C@H](CO)Nc1nc(SCc2cccc(Cl)c2F)nc2[nH]c(=O)sc12 [AZ10397767, reference compound]"
qualifier_sign = "="
numeric_readout = 100

[[record]]
compound = "CC(CO)Nc1nc(SCc2cccc(F)c2F)nc2ncsc12 (stereo not shown) [MVH-22]"
qualifier_sign = "<"
numeric_readout = 50

[[record]]
compound = "CC(CCO)Nc1nc(SCc2cccc(F)c2F)nc2[nH]nnc12 (stereo not shown) [MVH-33]"
qualifier_sign = "<"
numeric_readout = 50

[[record]]
compound = "CCCC(C)CSc1nc(NC(C)CO)c2nn[nH]c2n1 (stereo not shown) [MVH-82]"
qualifier_sign = "<"
numeric_readout = 50

[[record]]
compound = "CC(CO)Nc1nc(SCc2cccc(F)c2F)nc2nc(N)sc12 (stereo not shown) [MVH-23]"
qualifier_sign = "="
numeric_readout = 94.85

[[record]]
compound = "CC(CO)Nc1nc(SCc2cccc(F)c2F)nc2oncc12 (stereo not shown) [MVH-24]"
qualifier_sign = "="
numeric_readout = 96.47

[[record]]
compound = "CC(CO)Nc1nc(SCc2cccc(F)c2F)nc2[nH]cnc12 (stereo not shown) [MVH-15]"
qualifier_sign = "<"
numeric_readout = 50


###

target: CXCR2 (Homo sapiens, UniProt P25025); construct: expressed in transfected cells; assay: NanoBRET β-arrestin1 recruitment inhibition assay (NanoLux) in HEK293A cells; assay type: cell-based; conditions: CXCL2 at EC80; mean, n = 3; read-out: IC50 βarr1
parameter.measured: IC50 (nM)

[[record]]
compound = "CCCC(C)CSc1nc(NC(C)CO)c2nn[nH]c2n1 (stereo not drawn) [MVH-82]"
subject_of_test = "CXCR2 (Homo sapiens, UniProt P25025)"
parameter_measured = "IC50"
unit_symbol = "nM"
numeric_readout = 740

[[record]]
compound = "CC(CCO)Nc1nc(SCc2cccc(F)c2F)nc2[nH]nnc12 (stereo not drawn) [MVH-33]"
subject_of_test = "CXCR2 (Homo sapiens, UniProt P25025)"
parameter_measured = "IC50"
unit_symbol = "nM"
numeric_readout = 660

[[record]]
compound = "CC(CO)Nc1nc(SCc2cccc(F)c2F)nc2ncsc12 (stereo not drawn) [MVH-22]"
subject_of_test = "CXCR2 (Homo sapiens, UniProt P25025)"
parameter_measured = "IC50"
unit_symbol = "nM"
numeric_readout = 1500


###

Target: CXCR2 (Homo sapiens)
Construct: expressed in transfected cells
Assay: NanoBRET-based G protein activation inhibition assay (REGA-SIGN Gαi1 dissociation) in HEK293A.CXCR2 cells
Assay type: cell-based
Details: CXCL5 at EC80; mean, n = 3
Method: Cells were trypsinized and resuspended at 3 × 10^5 cell/mL in the growth medium, whereafter they were incubated for 2 hours at RT. […] After a 10-min equilibration period, the baseline BRET signal was determined by five consecutive reads followed by automatic administration of 10 μL of 10× ligand (Table 1) to the cell plate. Changes in the BRET signal was measured for 10 min, with each read spaced by 2.5 s. […] Neg AUC of NC correctedΔBRET=Gα activation read out. b. […]
pIC50: −log10 of the molar value.
parameter.measured: pIC50

[[record]]
molecule = "CCCC(C)CSc1nc(NC(C)CO)c2nn[nH]c2n1 (stereo not drawn)"
subject_of_test = "CXCR2 (Homo sapiens)"
parameter_measured = "pIC50"
result = "< 4.82"

[[record]]
molecule = "CC(CO)Nc1nc(SCc2cccc(F)c2F)nc2ncsc12 (stereo not drawn)"
subject_of_test = "CXCR2 (Homo sapiens)"
parameter_measured = "pIC50"
result = "< 4.82"

[[record]]
molecule = "CC(CO)Nc1nc(SCc2cccc(F)c2F)nc2[nH]cnc12 (stereo not drawn)"
subject_of_test = "CXCR2 (Homo sapiens)"
parameter_measured = "pIC50"
result = "< 4.82"

